Sourced from the supplement of paper PMC10567573

B1: DFFB (parent)
chain: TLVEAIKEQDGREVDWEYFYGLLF

Variants of: B1
experiment: protein stability index of a GFP-peptide fusion (GPS, HEK-293T) (PSI 1-6); higher = more stable;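 further: lentivirally expressed fusions sorted by FACS into six bins by GFP to DsRed ratio, PSI derived from sequencing read proportions per bin multiplied by bin number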
protocol conditions: c terminus: a fixed tail appended
Give measured protein stability index for each item. Keep answers brief.
One number for each entry.

Solved cases below.
TLVEAIKAQDGREVDWEYFYGLLF : 1.88
TLVEAIKEQDGREVDREYFYGLLF : 2.3
TLPEAIKEQDGREVDWEYFYGLLF : 2.16
TLVVAIKEQDGREVDWEYFYGLLF : 2.87

Dear colleague, could you send me protein stability index for each of the items below? Thanks.
1. TLVEVIKEQDGREVDWEYFYGLLF
2. TLVEAIKEQDGRETDWEYFYGLLF
3. TLVEAIKEQDGREVDWEYFKGLLF
4. TLVEAIKEMDGREVDWEYFYGLLF
5. TLVEAFKEQDGREVDWEYFYGLLF
6. TLVEAIKEGDGREVDWEYFYGLLF

1: 1.48; 2: 2.36; 3: 1.6; 4: 1.74; 5: 2.38; 6: 1.26
